Molecular target: GPR119 receptor (UniProt Q8TDV5, S309L, species not given)
Assay: GPR119 signaling, cyclic AMP (cAMP) homogenous time resolved fluorescence (HTRF) assay
Assay type: cell-based
Conditions: CHO cells with Gα15 and murine GPR119, or HEK293 Flp-In cells with human GPR119 S309L; table does not say which; read-out: Activity: inflection points, denoted as EC50 values (agonist activation of GPR119, cAMP)
pEC50: −log10 of the molar value.
Below, each entry is listed alongside its reported pEC50.

Problem: Write down the reported pEC50 of Fc1cc(OCCC2CC2C2CCN(c3ncc(Cl)cn3)CC2)ccc1-n1cnnn1 (single isomer, unassigned) [Ex 83dF] , test system: GPR119 receptor (UniProt Q8TDV5, S309L, species not given).
Result: 7.30 to 8.00

Problem: Another molecule to check: Cc1nc(C#N)cc(OCCC2CC2C2CCN(c3ncc(Cl)cn3)CC2)n1 (single isomer, unassigned) [Ex 34]
Result: > 8.00

Problem: Another molecule to check: O=C(NC1CC1)c1ccc(OC[C@@H]2C[C@H]2CC2CCN(c3ncc(Cl)cn3)CC2)cc1F (racemic) [Ex 106]
Result: > 8.00

Problem: Another molecule to check: Cc1nc(C#N)cc(OCC[C@@H]2C[C@@H]2C2CCN(c3ncc(F)c(C)n3)CC2)n1 (racemic)
Result: > 8.00

Problem: Another molecule to check: Fc1cc(OCCC2CC2C2CCN(c3ncc(Cl)cn3)CC2)ccc1-n1cnnn1 (single isomer, unassigned) [Ex 83dS]
Result: > 8.00

Problem: Another molecule to check: Fc1cc(OCCC2CC2C2CCN(c3ncc(Cl)cn3)CC2)ccc1-n1cnnn1 (racemic) [Ex 30b]
Result: > 8.00

Problem: Another molecule to check: Clc1cnc(N2CCC(C3CC3CCOc3ccc(-n4cnnn4)cc3)CC2)nc1 (single isomer, unassigned) [Ex 83cF]
Result: > 8.00

Problem: Another molecule to check: Cc1nc(C#N)cc(OCC[C@@H]2C[C@@H]2C2CCN(c3ccc(C(F)(F)F)cn3)CC2)n1 (racemic)
Result: > 8.00

Problem: Another molecule to check: Clc1cnc(N2CCC([C@@H]3C[C@@H]3CCOc3cccnc3)CC2)nc1 (racemic)
Result: < 6.70

###

Biological target: GPR119 receptor (UniProt Q8TDV5, S309L, species not given)
Experiment: GPR119 signaling, cyclic AMP (cAMP) homogenous time resolved fluorescence (HTRF) assay
Settings: CHO cells with Gα15 and murine GPR119, or HEK293 Flp-In cells with human GPR119 S309L; table does not say which; read-out: Activity: inflection points, denoted as EC50 values (agonist activation of GPR119, cAMP)
Below, each entry is listed alongside its reported EC50.

# count of solved cases: 2
>  <compound>
Clc1cnc(N2CCC(C3CC3CCOc3ccc(-c4ccno4)cc3)CC2)nc1 (racemic)

>  <EC50>
10 to 50 nM

$$$$
>  <compound>
O=S(=O)(c1ccc(OCCC2CC2C2CCN(c3ncc(Cl)cn3)CC2)cc1)C1CC1 (racemic)

>  <EC50>
10 to 50 nM

$$$$

# ---- query compound ----
Problem: I'd like to know its EC50. The compound in question is Clc1cnc(N2CCC(C3CC3CCOc3ccc(-n4ncnn4)cc3)CC2)nc1 (racemic)
Result: 10 to 50 nM
